Cited source for all entries: PubChem BioAssay (NCI)

System: LOX IMVI melanoma
Assay Comment: NCI-60 one-dose screen, 48 h (100 = growth as untreated, 0 = no growth, -100 = all killed)
Protocol Conditions: 10 µM
Compounds without any hit were thinned out: in the full panel of roughly 83,000, 20% have a hit.
Reported Property: growth (%)
I only need the number, in %, no unit after it.

> print(dat)
                                molecule  reported.property  unit.text  data.value
1  O=[N+]([O-])c1ccc(NCSc2ccc(Cl)cc2)cc1             growth          %        81.9

Ask: Param item = O=C(CN1CCN(C(=O)c2ccccc2)CC1)Nc1ccccc1SCc1ccccc1 ; retrieve measured growth.
Reply: 73.9

Ask: Record request: growth value, item CC(=O)Oc1cc(OC(C)=O)c2ccccc2c1OC(C)=O
Reply: 48.3

Ask: Give the measured growth of CN1C(=O)C2(Nc3cc(Cl)ccc3S2)c2cc(Cl)ccc21 (centres undefined) .
Reply: 78.8

----------
Test system: NCI-H226 lung
Assay Comment: NCI-60 one-dose screen, 48 h (100 = growth as untreated, 0 = no growth, -100 = all killed)
Protocol Conditions: 10 µM
Description: Growth inhibition of the NCI-H226 human Non-Small Cell Lung tumor cell line is measured as a screen for anti-cancer activity. Cells are grown in 96 well plates and exposed to the test compound for 48 hours. Compounds are tested at a single concentration, which is 10^-5 M for most compounds. The reported endpoint is percent growth (GI% or GIPRCNT), where numbers from 0 - 100% represent growth inhibition, and numbers from -100% - 0 represent cell death. […]
This is part of a sample that, as a whole, favours compounds with a hit. Of some 83,000 tested, about 20% had one in any assay.
Please respond with criterion met when measured growth is strictly beneath 90%, and with criterion not met in all other cases.

Ask: For O=C(N/N=C/c1ccc(Cl)cc1)c1ccccc1Nc1cccc(C(F)(F)F)c1 , is the recorded growth below the cut-off of 90%?
Reply: criterion met

Ask: Could you please tell me whether growth recorded for COc1ccc(C2CC(c3cc(OC)c(OC)c(OC)c3)=NN2)cc1 (stereo not given) is less than 90%?
Reply: criterion not met

----------
Tested on: NCI/ADR-RES ovarian
Assay Comment: NCI-60 one-dose screen, 48 h
Protocol Conditions: 10 µM
This is part of a sample that, as a whole, favours compounds with a hit. Of some 83,000 tested, about 20% had one in any assay. The source made the active and inactive calls. The calls were made as follows: active = growth percent below 10; inactive = the rest.
Select the matching outcome among active, inactive

> print(dat)
                                   compound  category
1  C=CCn1c(SCC(=O)Nc2ccc(C(=O)/C=C/c3ccc(Cl)cc3)cc2)nnc1-c1cc(-c2ccccc2)nc2ccccc12  inactive
2  COc1cc2c3c(n([C@H]4CCOC4)c(=O)c2cc1OC)-c1cc2c(cc1C3=O)OCO2  inactive
3  O=c1[nH]c(=O)n(C2C[C@H](O)[C@@H](CO)O2)cc1C(F)(F)F (some centres not stated)  inactive
4  COc1ccc(/C(=N\N)C(=O)c2ccccc2)cc1 (tested in a mixture with another compound)  inactive
5  N#Cc1c(N)nc(-c2cc(F)cc(C(F)(F)F)c2)nc1-c1ccccc1F  inactive

Ask: What outcome does the record of this test show for CCOC(=O)c1cc(C(=O)c2cc(OC)c(OC)c(OC)c2)n2c1ccc1c3cccnc3ccc12 ?
Reply: inactive

----------
Tested on: SNB-75 CNS
Assay Comment: NCI-60 one-dose screen, 48 h
Protocol Conditions: 10 µM
The panel holds about 83,000 compounds, 20% with a hit somewhere; the sample as a whole holds those more often. Activity calls are given as the source filed them. The calls were made as follows: active = growth percent below 10; inactive = the rest.
Pick one: active, inactive

> print(dat)
                                   compound  category
1  CCOC(=O)c1sc2ncnc(Nc3ccc4c(cnn4C(=O)Nc4ccccc4)c3)c2c1C  inactive
2  COc1cc(-c2csc(NC(=O)Nc3cc(C(F)(F)F)cc(C(F)(F)F)c3)n2)cc(OC)c1OC  inactive
3  COc1cc(/C=C/c2cc(/C=C/c3ccc(O)c(OC)c3)n(C(=O)Nc3ccccc3Cl)n2)ccc1O    active

Ask: What did this assay record as the result for CNC(=O)c1cc(Oc2ccc3c(c2)sc2nc(-c4ccc(N)cc4)cn23)ccn1 ?
Reply: inactive

Ask: I would be grateful if you could indicate the recorded call for Nc1nc(Cl)nc2c1ncn2C1O[C@H](CO)[C@@H](O)[C@@H]1F (stereo partly specified) .
Reply: inactive

Ask: Fill in: this test's call for CCOC(=O)c1sc2ncnc(Nc3ccc4c(cnn4C(=O)Nc4ccc(C)c(Cl)c4)c3)c2c1C is ___
Reply: inactive

Ask: Any idea what this test logged for O=C(c1ccccc1)N(C(=O)c1ccccc1)N1CCCC1 ?
Reply: inactive

Ask: # fetch the recorded call for O=C(CN(C1CCCCC1)C1CCCCC1)Nc1ccc(S(=O)(=O)c2ccc(NC(=O)CN(C3CCCCC3)C3CCCCC3)cc2)cc1 here
Reply: inactive

Ask: Which result was noted for this compound in the test: COc1ccc(/C=c2\sc3n(c2=O)C(c2cc(OC)c(OC)c(OC)c2)C=C(c2ccc(OC)c(OC)c2)N=3)cc1OC (stereo unspecified)
Reply: inactive

Ask: Call for entry O=C(COc1cccc(/C=C2\CSc3ccccc3C2=O)c1)c1ccc(Cl)cc1 :
Reply: inactive

Ask: Dear colleague, could you share the recorded outcome for CCCCc1oc2ccccc2c1C(=O)c1cc(I)c(OCCN(CC)CC)c(I)c1 when you have a moment?
Reply: inactive

----------
Tested on: DU-145 prostate
Assay Comment: NCI-60 one-dose screen, 48 h
Protocol Conditions: 10 µM
Compounds without any hit were thinned out: in the full panel of roughly 83,000, 20% have a hit. The source made the active and inactive calls. How the source made its calls: active means growth percent below 10; inactive means the rest.
# valid calls are active, inactive; nothing else

Compound	Category
COc1cc(-c2ccc(N=Nc3ccc4c(S(=O)(=O)O)ccc(N)c4c3O)c(OC)c2)ccc1N=Nc1ccc2c(S(=O)(=O)O)ccc(N)c2c1O	inactive
COc1ccc(C2CC(c3cccs3)=NN2c2ccc(S(N)(=O)=O)cc2)cc1 (stereo not drawn)	inactive
O=C(CN1CCN(C(=O)c2ccccc2)CC1)Nc1ccccc1SCc1ccccc1	inactive
COc1cc(N)c2ncccc2c1SC	inactive
CCCCCC(=O)O[C@]1(C(C)=O)CCC2C3CCC4=CC(=O)CC[C@]4(C)C3CC[C@@]21C (stereo partly drawn)	inactive

Ask: Look up the recorded call for c1ccc2c(c1)Cc1ccccc1N2CCN1CCCCC1 in this test.
Reply: inactive

Ask: Please state the recorded outcome for this compound: N#Cc1ccc(C(=O)CSc2nccc(Nc3ccc(C(=O)O)cc3)n2)cc1
Reply: inactive

Ask: What call does the record list for COc1ccc2nc3cc(Cl)ccc3c(Nc3cc(CN4CCCC4)c(O)c(CN4CCCC4)c3)c2n1 ?
Reply: inactive

----------
Tested on: SK-MEL-2 melanoma
Assay Comment: NCI-60 one-dose screen, 48 h
Protocol Conditions: 10 µM
Method: Growth inhibition of the SK-MEL-2 human tumor cell line is measured as a screen for anti-cancer activity. Cells are grown in 96 well plates and exposed to the test compound for 48 hours. Compounds are tested at a single concentration, which is 10^-5 M for most compounds. The reported endpoint is percent growth (GI% or GIPRCNT), where numbers from 0 - 100% represent growth inhibition, and numbers from -100% - 0 represent cell death. For example, a value of 40 represents 60% growth inhibition. […]
This is part of a sample that, as a whole, favours compounds with a hit. Of some 83,000 tested, about 20% had one in any assay. Calls of active or inactive are those of the source. Rule for the calls: active = growth percent below 10; inactive = the rest.
# output must be one of active, inactive

As a guide, the following entries are already answered.
> print(dat)
                                   compound  category
1     Cc1c2cnccc2c(C)c2c1c1cc(O)ccc1n2C(C)C    active
2  COc1cc(C2CC(c3cc(Cl)c(C)cc3O)=NN2c2ccc(S(N)(=O)=O)cc2)cc(OC)c1OC (stereo unspecified)  inactive
3  C=C/C(C)=C/C[C@]1(C)[C@H](C)[C@@H](OC(=O)CCC)[C@H](O)[C@@]23C(=C[C@H](OC)C[C@@H]12)[C@@H](OC(=O)CCC)O[C@H]3OC(C)=O    active

Ask: # lookup: test call for O=C(Cn1cc(CO)nn1)Nc1nc2ccccc2s1
Reply: inactive

Ask: # outcome recorded in this test, key = NC1=NC(c2ccc(Cl)cc2)C2=C(N1)/C(=C/c1ccc(Cl)cc1)CCC2 (stereo unspecified)
Reply: inactive

Ask: Give the logged outcome of this assay for the following compound: S=C1N(c2ccccc2)CN(C2CCCCC2)CN1c1ccccc1
Reply: inactive

----------
System: K-562 leukemia
Assay Comment: NCI-60 one-dose screen, 48 h (100 = growth as untreated, 0 = no growth, -100 = all killed)
Protocol Conditions: 10 µM
Compounds without any hit were thinned out: in the full panel of roughly 83,000, 20% have a hit.
growth strictly less than 90% = MET. Otherwise NOT MET.

Consider the following illustrative entries.
> print(dat)
                                   compound  category
1            CCCCCCCCCCOC(c1ccccc1)c1ccccc1       MET
2  CNC(=O)c1cc(Oc2ccc3c(c2)sc2nc(-c4ccc(NC(=O)Nc5ccc(Cl)c(C(F)(F)F)c5)cc4)cn23)ccn1       MET

Ask: Take the compound O=C1CC(SC(=S)C2CCCC2=O)C(=O)N1 (configuration not stated) and say whether its growth is less than 90%.
Reply: NOT MET

Ask: Field: below-cutoff. Rule: recorded growth strictly less than 90%. Subject: CCN1CCN(CCC(=O)Nc2cccc(-n3cc(-c4ccncc4)c(-c4ccc(Cl)c(OC)c4)n3)c2)CC1
Reply: MET

Ask: Would you kindly verify if growth of O[C@@H]1CO[C@H]2[C@@H]1OC[C@@H]2O is strictly less than 90%?
Reply: NOT MET

Ask: In plain terms, does COC1=CC(=O)OC(c2ccc(OC)cc2)C1 (configuration not stated) come in under 90% for growth?
Reply: NOT MET
